Tested on: S. cerevisiae AD1-9 (efflux-pump deficient), vegetative growth in YPD
Assay: growth sensitivity score (doubling time z-score vs DMSO controls); higher = slower growth, strongly negative scores also mark growth inhibition (complete suppression), active = hit call of the paper; in the data active = 2 or more and inactive = the rest
Counter-ions that a name gives are not always drawn.
Could you please pick one outcome from this set? active, inactive

Tell me the recorded outcome of this test for OCc1cccnc1 [3-Pyridinemethanol] (stock concentration (mM, diluted 1:100): 10) .
inactive

Tell me the recorded outcome of this test for CNS(=O)(=O)Cc1ccc2[nH]cc(CCN(C)C)c2c1 [Sumatriptan succinate] (stock concentration (mM, diluted 1:100): 7.2) .
inactive

Tell me the recorded outcome of this test for O=C(O)CCNC(=O)c1ccc(/N=N/c2ccc(O)c(C(=O)O)c2)cc1 [Balsalazide] (stock concentration (mM, diluted 1:100): 10) .
inactive

Tell me the recorded outcome of this test for CC1(C)S[C@@H]2[C@H](/N=C/N3CCCCCC3)C(=O)N2[C@H]1C(=O)O [Mecillinam] (stock concentration (mM, diluted 1:100): 10) .
inactive

Tell me the recorded outcome of this test for O=C1[C@H]2CCCC[C@H]2C(=O)N1CCCCN1CCN(c2nsc3ccccc23)CC1 [Perospirone hydrochloride] (stock concentration (mM, diluted 1:100): 9.4) .
active

Tell me the recorded outcome of this test for Cc1ccnc2c1NC(=O)c1cccnc1N2C1CC1 [Viramune] (stock concentration (mM, diluted 1:100): 10) .
inactive

Tell me the recorded outcome of this test for CN(C)CCC=C1c2ccccc2COc2ccccc21 [Doxepin] (stock concentration (mM, diluted 1:100): 10) .
active

Tell me the recorded outcome of this test for C[C@@H]1C[C@H]2[C@@H]3C[C@H](F)C4=CC(=O)C(Cl)=C[C@]4(C)[C@@]3(F)[C@@H](O)C[C@]2(C)[C@@]1(O)C(=O)CO [Halometasone monohydrate] (stock concentration (mM, diluted 1:100): 10) .
active

Tell me the recorded outcome of this test for O=C(O[C@H]1[C@H](Oc2ccccc2COC(=O)C2(O)C=CCCC2=O)O[C@H](CO)[C@@H](O)[C@@H]1O)c1ccccc1 (some centres not stated) [Tremulacin] (stock concentration (mM, diluted 1:100): 10) .
inactive

Tell me the recorded outcome of this test for O=C(CCNNC(=O)c1ccncc1)NCc1ccccc1 [Nialamide] (stock concentration (mM, diluted 1:100): 10) .
inactive

Tell me the recorded outcome of this test for CCN(CC)C(=O)C1(c2ccccc2)CC1CN (configuration not stated) [Milnacipran] (stock concentration (mM, diluted 1:100): 10) .
inactive

Tell me the recorded outcome of this test for C[C@]12CC[C@@H]3c4ccc(OS(=O)(=O)O)cc4CC[C@H]3[C@@H]1CCC2=O (stock concentration (mM, diluted 1:100): 10) .
inactive
